Every entry's value here was drawn from patent US20230098332A1.

- ASSAYED TARGET: hTRPM8 (Homo sapiens)
- Sequence (Q7Z2W7 whole entry): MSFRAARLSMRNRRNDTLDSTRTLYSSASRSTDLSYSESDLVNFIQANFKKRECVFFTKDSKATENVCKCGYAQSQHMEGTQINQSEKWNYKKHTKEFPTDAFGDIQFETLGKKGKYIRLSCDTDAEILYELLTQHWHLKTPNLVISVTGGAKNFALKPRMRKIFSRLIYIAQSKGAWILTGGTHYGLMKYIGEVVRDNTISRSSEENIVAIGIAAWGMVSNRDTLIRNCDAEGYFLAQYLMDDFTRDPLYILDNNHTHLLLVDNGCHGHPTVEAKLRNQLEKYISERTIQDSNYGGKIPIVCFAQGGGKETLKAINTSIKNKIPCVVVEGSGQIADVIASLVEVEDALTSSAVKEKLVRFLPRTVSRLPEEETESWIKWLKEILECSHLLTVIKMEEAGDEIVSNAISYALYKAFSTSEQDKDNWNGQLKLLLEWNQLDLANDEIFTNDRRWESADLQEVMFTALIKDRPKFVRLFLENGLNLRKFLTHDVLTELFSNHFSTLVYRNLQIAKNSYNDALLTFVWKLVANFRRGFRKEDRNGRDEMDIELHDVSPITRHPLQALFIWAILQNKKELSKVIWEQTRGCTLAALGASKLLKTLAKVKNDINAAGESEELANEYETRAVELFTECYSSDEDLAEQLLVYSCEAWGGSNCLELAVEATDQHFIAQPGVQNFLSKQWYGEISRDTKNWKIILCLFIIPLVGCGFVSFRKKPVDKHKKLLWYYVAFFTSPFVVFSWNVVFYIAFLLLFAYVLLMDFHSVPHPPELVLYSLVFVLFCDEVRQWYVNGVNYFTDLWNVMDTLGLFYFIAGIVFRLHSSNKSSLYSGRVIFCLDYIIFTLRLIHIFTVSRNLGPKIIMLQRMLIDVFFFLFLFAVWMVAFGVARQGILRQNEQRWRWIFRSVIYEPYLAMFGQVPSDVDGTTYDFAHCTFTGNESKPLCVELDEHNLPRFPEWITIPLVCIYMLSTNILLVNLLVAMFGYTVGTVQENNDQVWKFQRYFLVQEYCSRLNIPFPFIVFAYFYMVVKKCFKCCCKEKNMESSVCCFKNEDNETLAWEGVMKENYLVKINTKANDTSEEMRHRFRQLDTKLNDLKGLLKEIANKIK
- ASSAY: Assay on TRPM8 modulators: calcium imaging (Fluo-4, Flexstation) in HEK293 cell line stably expressing hTRPM8
- PROTOCOL CONDITIONS: TRPM8 agonist activity, calcium influx, HEK293 stably expressing hTRPM8, sigmoidal dose-response fit
pEC50: −log10 of the molar value. Structures can show the parent of a compound that is named as a salt.
READOUT NAME: pEC50

Study these solved cases before continuing.
Cc1cc(C)c(OCCN2CCN(C)CC2)c(Cc2ccccn2)c1 [compound 63]: 4.46 to 6.00
Cc1cc(C)c(OCCN2CCOCC2)c(Cc2c(Cl)cccc2C#N)c1 [compound 142]: 6.00 to 6.52
Cc1ccc(C)c(OCCN2CCN(C)CC2)c1Cc1ccccc1 [compound 66]: 4.46 to 6.00
CC1CCC(OCCN2CCN(C)CC2)C(Cc2ccccc2)C1 (stereo not shown) [compound 51]: 4.46 to 6.00
C=C(c1ccccc1F)c1cc(C)cc(C)c1OCCN1CCOCC1 [compound 145]: 6.00 to 6.52

// below: pEC50 requested for another compound
Would you mind telling me what pEC50 value was observed for Cc1cc(C)c(OCCN2CCN(C)CC2)c(Cc2cccc(C#N)c2)c1 [compound 139, dihydrochloride] ? 4.46 to 6.00
